ASSAY_PROCEDURE: 384-well plate pilot, post-Golgi transport modulator project, inhibition of yeast transport mutant growth (AID 636)
CONDITIONS_USED: absorbance 615 nm, about 18 h, hits give high values
Provide the reported inhibition of each item.
The reply should be a number in %, with the unit left off.

Incoming: I would be grateful if you could share the reported inhibition for "CCCCNC(=O)CSc1nc2ccc(N3CCOCC3)cc2c(=O)n1CCc1ccccc1" .
Outgoing: -7.16

Incoming: I would be grateful if you could share the reported inhibition for "Cc1noc(NS(=O)(=O)c2ccc(N)cc2)c1C" .
Outgoing: 2.34

Incoming: I would be grateful if you could share the reported inhibition for "CCOc1ccc2nc(NC(=O)CSc3nc4ccccc4c(=O)n3Cc3ccco3)sc2c1" .
Outgoing: -5.95

Incoming: I would be grateful if you could share the reported inhibition for "O=C(Nc1ccc(Cc2ccncc2)cc1)C1CC1" .
Outgoing: -2.21

Incoming: I would be grateful if you could share the reported inhibition for "Cc1nc(NC(=O)c2csc3ccccc23)sc1C" .
Outgoing: 3.84

Incoming: I would be grateful if you could share the reported inhibition for "Clc1ccc(Cl)c(-c2nn3c(COc4ccccc4)nnc3s2)c1" .
Outgoing: -5.07

Incoming: I would be grateful if you could share the reported inhibition for "COc1cc2nc(SCC(=O)NC3CC3)n(CCC3=CCCCC3)c(=O)c2cc1OC" .
Outgoing: -2.11

Incoming: I would be grateful if you could share the reported inhibition for "Cc1occc1-c1nc(-c2ccncc2)no1" .
Outgoing: 0.96

Incoming: I would be grateful if you could share the reported inhibition for "COC(=O)c1[nH]c2ccc(C)cc2c1NC(=O)CN1CCCC(C)(C)C1" .
Outgoing: -5.87

Incoming: I would be grateful if you could share the reported inhibition for "O=C(Cc1cccs1)NCc1ccc(F)cc1" .
Outgoing: -3.6

Incoming: I would be grateful if you could share the reported inhibition for "CNc1ccc(C(O)(C(F)(F)F)C(F)(F)F)cc1C(O)(C(F)(F)F)C(F)(F)F" .
Outgoing: -5.33

* * *

ASSAY_PROCEDURE: reversal of MRP1-mediated doxorubicin resistance, pilot screen, H69AR cells, doxorubicin co-treatment (AID 601)
CONDITIONS_USED: H69AR cells + 2 uM doxorubicin, CellTiter-Glo, 72 h; at 10 µM; hits give high values
MEASURED_QUANTITY: differential viability (reversal) (%)
The reply should be a number in %, with the unit left off.

Incoming: I would be grateful if you could share the reported differential viability (reversal) for "O=C(NCc1nc2ccccc2[nH]1)c1ccc(Cl)c(S(=O)(=O)N2CCCC2)c1" .
Outgoing: -3.96

Incoming: I would be grateful if you could share the reported differential viability (reversal) for "Cc1ccnc(NS(=O)(=O)c2ccc(N=CC3=C(O)CC(C)(C)CC3=O)cc2)n1" .
Outgoing: -0.37

Incoming: I would be grateful if you could share the reported differential viability (reversal) for "Cc1ccc(C)c2[nH]c(=O)c(CCNC(=O)c3ccc(Br)o3)cc12" .
Outgoing: 5.93

Incoming: I would be grateful if you could share the reported differential viability (reversal) for "COc1nc(OC)nc(N2CCC(C(=O)NCc3cccs3)CC2)n1" .
Outgoing: -1.4

Incoming: I would be grateful if you could share the reported differential viability (reversal) for C=CCOc1ccc(C2/C(=C(\O)c3c(C)[nH]c(C(=O)OC)c3C)C(=O)C(=O)N2CCN(C)C)cc1 (configuration not stated) .
Outgoing: -5.67

Incoming: I would be grateful if you could share the reported differential viability (reversal) for "Cc1ccc(C)c(CSc2nnc(CCN)o2)c1" .
Outgoing: -20.6

Incoming: I would be grateful if you could share the reported differential viability (reversal) for "O=C(Nc1ccncc1)C1c2ccccc2Oc2ccccc21" .
Outgoing: -8.33

Incoming: I would be grateful if you could share the reported differential viability (reversal) for "COc1ccc(-c2nnn(CC(=O)c3ccc4c(c3)OCCO4)n2)cc1OC" .
Outgoing: 7.78

Incoming: I would be grateful if you could share the reported differential viability (reversal) for "Cc1nn(C)c(C)c1NC(=O)CSc1nc(Cc2ccccc2)nc2c1cnn2-c1ccccc1" .
Outgoing: 0.07

Incoming: I would be grateful if you could share the reported differential viability (reversal) for "CN1CCN(c2nc3c(c(=O)n(C)c(=O)n3C)n2Cc2cccc3ccccc23)CC1" .
Outgoing: 26.6

Incoming: I would be grateful if you could share the reported differential viability (reversal) for "CCOc1cc(C(=O)Nc2ncccn2)cc(OCC)c1OCC" .
Outgoing: 4.8

Incoming: I would be grateful if you could share the reported differential viability (reversal) for "CCSc1nc2c(c(=O)n(C)c(=O)n2C)n1Cc1ccc(Cl)cc1" .
Outgoing: -4.85

Incoming: I would be grateful if you could share the reported differential viability (reversal) for "COC(=O)c1ccc(Oc2nc(NC(C)C)nc(N(C)C)n2)cc1" .
Outgoing: -7.6

Incoming: I would be grateful if you could share the reported differential viability (reversal) for "COc1ccc(N2CCN(Cc3cc(=O)oc4cc(C)c(Cl)c(C)c34)CC2)cc1" .
Outgoing: -1.03

Incoming: I would be grateful if you could share the reported differential viability (reversal) for "O=c1nc(N2CCCC2)nc(Nc2ccccc2)[nH]1" .
Outgoing: -3.31

Incoming: I would be grateful if you could share the reported differential viability (reversal) for O=C1c2ccccc2C(Nc2ccc3c(c2)OCCO3)N1Cc1ccco1 (configuration not stated) .
Outgoing: -22.6

Incoming: I would be grateful if you could share the reported differential viability (reversal) for "CCc1nc(N)nc(N)c1-c1ccc(Cl)cc1" .
Outgoing: -59.9

Incoming: I would be grateful if you could share the reported differential viability (reversal) for "Cc1cccc(NC(=O)c2ccc(S(=O)(=O)N(C)C)cc2)n1" .
Outgoing: 2.72

Incoming: I would be grateful if you could share the reported differential viability (reversal) for COc1cccc(N2CCN(c3ncnc4c3[nH]c3ccc(F)cc34)CC2C)c1 (configuration not stated) .
Outgoing: -1.01

Incoming: I would be grateful if you could share the reported differential viability (reversal) for "C=CCn1c(COc2ccc(Cl)cc2)nnc1SCC(=O)N1CC(=O)Nc2ccccc21" .
Outgoing: -10.9

Incoming: I would be grateful if you could share the reported differential viability (reversal) for "CCCCc1nc(NCCN2CCOCC2)c(C#N)c2c1COC(C)(C)C2" .
Outgoing: 4.02

Incoming: I would be grateful if you could share the reported differential viability (reversal) for "N#Cc1c(N)oc(-c2cccs2)c1-c1cccs1" .
Outgoing: 1.77

The values you see were collected from PubChem BioAssay.
